- Test system: 991263-137-R1-J2-PDC complex spheroid viability;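 further: spheroids exposed to compounds for 7 days before readout; 100% = DMSO vehicle control viability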
- experiment notes: Anticancer human tumor 991263-137-R1-J2-PDC patient-derived colon adenocarcinoma cell line growth inhibition [POLQ]
- measurement parameters: second compound 0.1 µM; first compound 3.16 µM; stronger effect = lower value
measured attribute: viability, T/C (%)
Field format: number, assumed %, no unit text.

**Query** Would you mind telling me what viability, T/C value was observed for O=C(c1cc(Cc2n[nH]c(=O)c3ccccc23)ccc1F)N1CCN(C(=O)C2CC2)CC1 + COC1C(OC(N)=O)C(O)C(Oc2ccc3c(O)c(NC(=O)c4ccc(O)c(CC=C(C)C)c4)c(=O)oc3c2C)OC1(C)C ?
**Result** 85.5

**Query** Same read-out for COc1cccc2c1C(=O)c1c(O)c3c(c(O)c1C2=O)CC(O)(C(=O)CO)CC3OC1CC(N)C(O)C(C)O1 (stereo unspecified) + Nc1ccc(C#CCN(C(=O)Cc2ncc(C(F)(F)F)cc2C(F)(F)F)c2ccc(F)cc2)nn1 ?
**Result** 45.1

**Query** Same read-out for CC1COCCN1c1cc(-c2ccnn2C)c2ccnc(-c3ccn[nH]3)c2n1 (stereo unspecified) + COC1C(OC(N)=O)C(O)C(Oc2ccc3c(O)c(NC(=O)c4ccc(O)c(CC=C(C)C)c4)c(=O)oc3c2C)OC1(C)C ?
**Result** 23.1

**Query** Same read-out for O=c1[nH]cc(F)c(=O)[nH]1 + COC1C(OC(N)=O)C(O)C(Oc2ccc3c(O)c(NC(=O)c4ccc(O)c(CC=C(C)C)c4)c(=O)oc3c2C)OC1(C)C ?
**Result** 95.1

**Query** Same read-out for COc1ccc([C@@H](O)c2cc(-c3ncnc4cc(N5CCOCC5)ccc34)c(F)cc2Cl)nn1 + Nc1ccc(C#CCN(C(=O)Cc2ncc(C(F)(F)F)cc2C(F)(F)F)c2ccc(F)cc2)nn1 ?
**Result** 59.2

**Query** Same read-out for COc1cc2cc(C(=O)CCC(=O)O)sc2cc1OC + COC1C(OC(N)=O)C(O)C(Oc2ccc3c(O)c(NC(=O)c4ccc(O)c(CC=C(C)C)c4)c(=O)oc3c2C)OC1(C)C ?
**Result** 116

**Query** Same read-out for Nc1ccn(C2OC(CO)C(O)C2(F)F)c(=O)n1 (stereo unspecified) + Cc1cccc(N(C)C(=O)C2C(O)CCN2c2nc(C)cc(C(F)(F)F)c2C#N)c1 ?
**Result** 40.3

**Query** Same read-out for COc1cc2cc(C(=O)CCC(=O)O)sc2cc1OC + Nc1ccc(C#CCN(C(=O)Cc2ncc(C(F)(F)F)cc2C(F)(F)F)c2ccc(F)cc2)nn1 ?
**Result** 113

**Query** Same read-out for O=c1[nH]cc(F)c(=O)[nH]1 + Cc1cccc(N(C)C(=O)C2C(O)CCN2c2nc(C)cc(C(F)(F)F)c2C#N)c1 ?
**Result** 85.8

**Query** Same read-out for O=C(Nc1ccc(O)c(NS(=O)(=O)c2ccc(F)cc2)c1)c1ccc(-c2ccccc2)cc1 + Cc1cccc(N(C)C(=O)C2C(O)CCN2c2nc(C)cc(C(F)(F)F)c2C#N)c1 ?
**Result** 99

**Query** Same read-out for CNCc1ccc(-c2[nH]c3cc(F)cc4c3c2CCNC4=O)cc1 + Cc1cccc(N(C)C(=O)C2C(O)CCN2c2nc(C)cc(C(F)(F)F)c2C#N)c1 ?
**Result** 105
